# Target: Recombinant human HDAC9 (Homo sapiens)
# Construct: purchased BPS Biosciences
# Sequence (Q9UKV0 whole entry): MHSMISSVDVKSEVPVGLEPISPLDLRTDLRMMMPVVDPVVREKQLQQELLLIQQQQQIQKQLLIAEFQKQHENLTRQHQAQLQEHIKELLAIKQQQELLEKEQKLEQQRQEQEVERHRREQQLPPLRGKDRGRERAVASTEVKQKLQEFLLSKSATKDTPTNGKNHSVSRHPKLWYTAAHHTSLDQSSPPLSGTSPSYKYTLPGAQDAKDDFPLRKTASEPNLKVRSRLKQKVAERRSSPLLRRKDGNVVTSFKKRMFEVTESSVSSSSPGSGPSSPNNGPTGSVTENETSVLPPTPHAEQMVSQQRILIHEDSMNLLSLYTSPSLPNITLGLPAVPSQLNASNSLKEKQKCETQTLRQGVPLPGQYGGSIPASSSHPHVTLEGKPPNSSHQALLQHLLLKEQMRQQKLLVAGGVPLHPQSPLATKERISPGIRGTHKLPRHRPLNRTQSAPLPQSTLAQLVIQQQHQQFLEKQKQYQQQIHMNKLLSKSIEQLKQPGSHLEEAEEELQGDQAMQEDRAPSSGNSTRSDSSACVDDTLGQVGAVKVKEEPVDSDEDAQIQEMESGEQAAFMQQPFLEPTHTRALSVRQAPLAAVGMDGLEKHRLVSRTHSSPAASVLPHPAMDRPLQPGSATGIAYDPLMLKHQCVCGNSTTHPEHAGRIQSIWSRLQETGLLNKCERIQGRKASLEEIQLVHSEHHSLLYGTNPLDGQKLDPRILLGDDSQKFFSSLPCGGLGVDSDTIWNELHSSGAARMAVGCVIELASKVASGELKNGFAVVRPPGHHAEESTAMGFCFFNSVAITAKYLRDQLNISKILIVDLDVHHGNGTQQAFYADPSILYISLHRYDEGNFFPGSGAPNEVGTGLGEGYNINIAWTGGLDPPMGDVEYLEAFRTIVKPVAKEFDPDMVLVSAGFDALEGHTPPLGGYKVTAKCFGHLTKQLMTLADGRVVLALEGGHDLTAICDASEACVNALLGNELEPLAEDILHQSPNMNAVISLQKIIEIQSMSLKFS
# Measurement Protocol: HDAC inhibitory assay, HDAC9 (Boc-Lys(Tfa)-AMC substrate)
# Assay type: biochemical
# Condition Parameters: test concentration not given; average of triplicate
# Protocol: The compounds of Examples 1-12 and 14-16 were evaluated for their ability to act as inhibitors of human HDAC. The compound of Example 13 was not tested. Recombinant human HDAC1, HDAC2, HDAC3/NcoR2, HDAC5, HDAC6, HDAC8, HDAC9, HDAC10 and HDAC11 were purchased from BPS Biosciences. Recombinant human HDAC4 and HDAC7 were purchased from Millipore. The substrate Boc-Lys(Ac)-AMC and Boc-Lys(Tfa)-AMC were purchased from Bachem. The substrate Ac-RHK(Ac)K(Ac)-AMC was purchased from Enzo Life Sciences. […]
Structures can show the parent of a compound that is named as a salt.
Outcome Measure: HDAC 9 inhibitory activity (%)

O=C(NCCCCN1C(=O)c2ccccc2C1=O)c1coc(-c2ccccc2O)n1 | 16.4
O=C(NCCCCNCCC(c1ccccc1)c1ccccc1)c1coc(-c2ccccc2O)n1 [Example 12, hydrochloride] | 16.4

[A] O=C(CNC(=O)c1coc(-c2ccccc2O)n1)Nc1ccccc1
[B] O=C(Nc1ccccc1)c1ccc(CNC(=O)c2coc(-c3ccccc3O)n2)cc1
[C] O=C(NCCCCNC(=O)C(c1ccccc1)c1ccccc1)c1coc(-c2ccccc2O)n1
Asked: Rank items: key HDAC 9 inhibitory activity, increasing. Answer by listing the labels in the order asked for.
Given back: C, A, B
